B1: tRNA (parent)
chain: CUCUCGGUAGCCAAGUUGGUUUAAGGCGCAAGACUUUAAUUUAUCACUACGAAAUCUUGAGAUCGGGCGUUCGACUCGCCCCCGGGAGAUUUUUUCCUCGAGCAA

# Variants of: B1
# ASSAY METHOD TEXT: nonsense suppression (GFP-seq) (ratio to wild type); higher = more function; SUP4oc tRNA, yeast GFP reporter sort-seq
Fewer inactive variants are shown than the library holds.
The reader will find reported nonsense suppression values listed item by item below.
MEASURED ATTRIBUTE: nonsense suppression

                          mutant_name  censoring_operator  assay_result
 0                A33C G61A A62G G73C                   ≤         0.026
 1                      C1U G26U C34G                   ≤         0.026
 2                     G25U G61U C68U                   ≤         0.026
 3                           G6U U70C                   ≤         0.026
 4                A14G A30C G61C A74U                   ≤         0.026
 5                           C1A C81G                   ≤         0.026
 6                     G32U U55G A62C                   ≤         0.026
 7                      C3A C29U A87G                   ≤         0.026
 8                          A24C A30U                   =          0.11
 9  U8G G26A C56U C64G G66U G78U A89U                   ≤         0.026
10                      U4A U17A U22C                   =        0.0499
11                          U22G C82U                   =         0.913
12                               U17C                   =          1.05
13                           C1A A30C                   ≤         0.026
14                     U22G A54G G73A                   ≤         0.026
15                          A24U A30G                   =         0.148
16                      A9G G28A G61A                   =          1.24
17                 U2A C27U A31G U57C                   ≤         0.026
18                          A23G U63A                   =        0.0418
19  U8G A13C G28C C64U U70A C72U G84U                   ≤         0.026
20                          A24U G84C                   =         0.107
21                           A9G U22C                   =         0.323
22                          U22A G65A                   =          0.12
23                           C5A A31C                   ≤         0.026
24                 G7U A54U U63C G88U                   ≤         0.026
25                          G15A U76C                   =        0.0394
26                          C68U C83G                   ≤         0.026
27       C1G U20G A23U C27A U76A G88U                   ≤         0.026
28                           C1A G85U                   =          0.03
29                      C3U G78C A89U                   ≤         0.026
30                           A9C G85U                   =          0.04
31                           A9C A54U                   =          1.21
32                           U2C C79G                   ≤         0.026
33                          U20G U55C                   =         0.849
34                          C12G U70A                   ≤         0.026
35                      G7C G10A C68G                   ≤         0.026
36                          A31C C56G                   ≤         0.026
37                          G73A G84A                   =         0.191
38                     U21G U22G G28A                   =         0.206
39                          A23G U63G                   ≤         0.026
40                     U17A A23U G84A                   ≤         0.026
41                     A24U U35G A89G                   ≤         0.026
42                           A9U A24G                   =        0.0422
43                G66C G69C G73C G84C                   ≤         0.026
44                     A23G A33C G66A                   ≤         0.026
45                     G19C C56U U57C                   ≤         0.026
46                           C1G C64A                   ≤         0.026
47                          U55C G66A                   =        0.0631
48                     A13G A33U U57A                   ≤         0.026
49                          U21C A24G                   =        0.0906
50                          C11G A33G                   ≤         0.026
51                           G7A G86U                   ≤         0.026
52                     U35A G59A G67A                   ≤         0.026
53                          U55A U70C                   ≤         0.026
54                          A23G G85U                   =        0.0779
55                           U4A U17A                   =         0.174
56                          A13C A89G                   =         0.122
57                          U63G G67A                   =        0.0444
58                          U16C U55C                   =         0.769
59                               A62U                   =         0.193
60           G19U G25A A31G U35G C64G                   ≤         0.026
61                     C11G U63A U70G                   ≤         0.026
62                          U22A G28A                   =          1.14
63                           G7U C56U                   ≤         0.026
64                          C27U G61C                   =        0.0306
65                     A33C U35C C83A                   ≤         0.026
66                          C56A G69A                   ≤         0.026
67                          C27G C81G                   ≤         0.026
68                          A60U C68U                   =           1.1
69                          G61A C83A                   =        0.0363
70                          U17C U63G                   =         0.804
71                A23C A30G C81A A87G                   ≤         0.026
72                          A13U A24G                   =          0.96
73      C12A G18U G66A U70C C77G C83U                   ≤         0.026
74                     A13U C79A G84U                   ≤         0.026
75                               G85C                   =         0.163
76                          A13C G28A                   =          1.08
77                          A54U A89C                   ≤         0.026
78                 C5G A33G G65A G66C                   ≤         0.026
79                     A13C G61U A87C                   ≤         0.026
80                 U8C U16A A30C A54C                   ≤         0.026

Origin of values: the RNAGym collection of RNA variant scans (doi:10.1101/gad.245936.114)
